- target entity: GABAA2 (human α2β3γ2 GABAA receptor) (Homo sapiens, UniProt P18507+P47869)
- Construct: expressed in transfected cells; host or cells: Xenopus laevis oocytes injected with capped cRNA
- Sequence (P47869 29-451): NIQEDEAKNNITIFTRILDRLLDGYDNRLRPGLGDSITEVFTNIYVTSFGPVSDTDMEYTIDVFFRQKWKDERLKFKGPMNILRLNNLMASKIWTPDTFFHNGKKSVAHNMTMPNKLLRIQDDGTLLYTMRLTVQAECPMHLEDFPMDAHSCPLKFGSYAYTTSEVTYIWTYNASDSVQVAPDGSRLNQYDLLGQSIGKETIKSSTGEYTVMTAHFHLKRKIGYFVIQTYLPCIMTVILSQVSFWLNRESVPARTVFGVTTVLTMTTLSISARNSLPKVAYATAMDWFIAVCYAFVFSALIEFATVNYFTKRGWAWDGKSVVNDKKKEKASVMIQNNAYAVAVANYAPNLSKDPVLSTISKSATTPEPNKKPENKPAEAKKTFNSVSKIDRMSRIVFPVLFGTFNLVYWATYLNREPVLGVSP
- Sequence (P28472 26-473 partner): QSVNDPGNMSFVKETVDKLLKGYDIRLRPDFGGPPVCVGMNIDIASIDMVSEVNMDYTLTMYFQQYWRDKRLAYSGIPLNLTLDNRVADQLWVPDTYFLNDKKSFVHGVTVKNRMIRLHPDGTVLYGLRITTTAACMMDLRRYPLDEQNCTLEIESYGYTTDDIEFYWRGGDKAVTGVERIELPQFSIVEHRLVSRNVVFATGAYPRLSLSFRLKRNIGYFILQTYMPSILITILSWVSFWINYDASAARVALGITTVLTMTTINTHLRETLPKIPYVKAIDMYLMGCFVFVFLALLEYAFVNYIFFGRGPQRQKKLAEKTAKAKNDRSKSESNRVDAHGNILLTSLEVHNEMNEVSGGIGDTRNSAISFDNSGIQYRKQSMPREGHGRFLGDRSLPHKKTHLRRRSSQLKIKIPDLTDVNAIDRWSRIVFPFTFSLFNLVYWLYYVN
- Sequence (P18507 40-475): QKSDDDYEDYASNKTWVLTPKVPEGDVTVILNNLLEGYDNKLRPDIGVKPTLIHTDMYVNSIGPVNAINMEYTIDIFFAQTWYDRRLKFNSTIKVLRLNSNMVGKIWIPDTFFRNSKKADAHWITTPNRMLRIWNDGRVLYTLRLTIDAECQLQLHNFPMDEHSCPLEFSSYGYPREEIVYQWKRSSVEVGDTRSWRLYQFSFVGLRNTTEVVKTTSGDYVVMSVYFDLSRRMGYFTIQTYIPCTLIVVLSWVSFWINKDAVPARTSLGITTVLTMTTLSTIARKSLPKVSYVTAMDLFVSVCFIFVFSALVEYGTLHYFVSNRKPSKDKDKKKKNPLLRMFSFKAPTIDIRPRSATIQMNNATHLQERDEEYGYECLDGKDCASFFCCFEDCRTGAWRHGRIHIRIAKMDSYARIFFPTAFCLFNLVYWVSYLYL
- test description: Two-electrode voltage-clamp in Xenopus oocytes, potentiation of GABA EC10 current, GABAA2
- Type: cell-based
- stated conditions: percentage potentiation of GABA EC10 current divided by that of diazepam
- Procedure: Presently available GABAA modulator anxiolytics work via interactions at the classical benzodiazepine binding site. To a large degree these anxiolytics lack GABAA receptor subtype-selectivity. […] GABAA receptors were heterologously expressed in Xenopus oocytes by injecting cRNA corresponding to human α1, α2, α3, α5, β2, β3 and γ2 subunits of the GABAA receptor genes. […] Modulatory effect of test compound was determined and compared across subtypes. […]
Listed next: entries and their corresponding Relative Potentiation for GABAA2.
Respond using a number only.

Sample answers from the record:
CCCNC(=O)c1nnc2c(-c3ccc(OC)cc3OC)cccc2c1N = 0.15
CCCNC(=O)c1nnc2c(-c3cnc(OC)nc3OC)c(Cl)ccc2c1N = 0.29
CCCNC(=O)c1nnc2c(-c3ccc(N(C)C)cc3)cccc2c1N = 0.18
CCCNC(=O)c1nnc2c(-c3cccc(C(=O)N4CCC4)c3)cccc2c1N = −0.0075
CCCNC(=O)c1nnc2c(-c3c(Cl)cccc3OC)cccc2c1N [drawing 298] = 0.063

Challenge: Item under review: COc1cccc(F)c1-c1cccc2c(N)c(C(=O)NC3CC3)nnc12 . Reported Relative Potentiation for GABAA2?
Response given: 0.16

Challenge: Value lookup for Relative Potentiation for GABAA2; key = CCCNC(=O)c1nnc2c(-c3cccc(F)c3OC)cccc2c1N
Response given: 0.11

Challenge: Given CCCNC(=O)c1nnc2c(-c3ccc(C)c(C)c3)cccc2c1N , state its recorded Relative Potentiation for GABAA2.
Response given: 0.35

Challenge: So what does the record say about Relative Potentiation for GABAA2 for CCCNC(=O)c1nnc2c(-c3cc(C)ccc3C)c(F)ccc2c1N ?
Response given: 0.28

Challenge: Need Relative Potentiation for GABAA2 of CCCNC(=O)c1nnc2c(-c3cccc(S(C)(=O)=O)c3)cccc2c1N , thanks.
Response given: 0.26

Challenge: Look up Relative Potentiation for GABAA2: CCCNC(=O)c1nnc2c(-c3ccc4[nH]ccc4c3)cccc2c1N
Response given: 0.16
